Provenance of the data: patent US11505570B2

purity by HPLC, Time (month) 5 reference
# method: Stability test: storage in nitrogen-filled sealed bottles, purity test by HPLC every month
# Format: physicochemical
# setup_conditions: Table 1, stored at −20° C., 5 months

>  <compound>
NC(=O)c1ccc[n+]([C@@H]2O[C@H](CO)[C@@H](O)[C@H]2O)c1.O=C([O-])C[C@H](O)C(=O)O [Example 3, malate of NR (1:1)]

>  <purity by HPLC, Time (month) 5>
97.912

$$$$
>  <compound>
NC(=O)c1ccc[n+]([C@@H]2O[C@H](CO)[C@@H](O)[C@H]2O)c1.O=C(O)CC(O)(CC(=O)O)C(=O)O.O=C(O)CC(O)(CC(=O)O)C(=O)[O-] [Example 2, citrate of NR (1:2)]

>  <purity by HPLC, Time (month) 5>
97.806

$$$$
>  <compound>
NC(=O)c1ccc[n+]([C@@H]2O[C@H](CO)[C@@H](O)[C@H]2O)c1.O=C(O)C[C@H](O)C(=O)O.O=C([O-])C[C@H](O)C(=O)O [Example 4, malate of NR (1:2)]

>  <purity by HPLC, Time (month) 5>
98.081

$$$$
>  <compound>
NC(=O)c1ccc[n+]([C@@H]2O[C@H](CO)[C@@H](O)[C@H]2O)c1.O=C(O)CC(O)(CC(=O)O)C(=O)[O-] [Example 1, citrate of NR (1:1)]

>  <purity by HPLC, Time (month) 5>
97.978

$$$$
>  <compound>
NC(=O)c1ccc[n+]([C@@H]2O[C@H](CO)[C@@H](O)[C@H]2O)c1.[Cl-] [Comparative Example, chlorine salt of NR, reference compound]

>  <purity by HPLC, Time (month) 5>
97.575

$$$$

* * *

# method: Stability test: storage in nitrogen-filled sealed bottles, purity test by HPLC every month
# Type: physicochemical
# setup_conditions: Table 1, stored at −20° C., 4 months
purity by HPLC, Time (month) 4 reference

>  <molecule>
NC(=O)c1ccc[n+]([C@@H]2O[C@H](CO)[C@@H](O)[C@H]2O)c1.O=C(O)CC(O)(CC(=O)O)C(=O)O.O=C(O)CC(O)(CC(=O)O)C(=O)[O-] [Example 2, citrate of NR (1:2)]

>  <purity by HPLC, Time (month) 4>
97.933

$$$$
>  <molecule>
NC(=O)c1ccc[n+]([C@@H]2O[C@H](CO)[C@@H](O)[C@H]2O)c1.[Cl-] [Comparative Example, chlorine salt of NR, reference compound]

>  <purity by HPLC, Time (month) 4>
97.449

$$$$
>  <molecule>
NC(=O)c1ccc[n+]([C@@H]2O[C@H](CO)[C@@H](O)[C@H]2O)c1.O=C(O)C[C@H](O)C(=O)O.O=C([O-])C[C@H](O)C(=O)O [Example 4, malate of NR (1:2)]

>  <purity by HPLC, Time (month) 4>
98.207

$$$$
>  <molecule>
NC(=O)c1ccc[n+]([C@@H]2O[C@H](CO)[C@@H](O)[C@H]2O)c1.O=C([O-])C[C@H](O)C(=O)O [Example 3, malate of NR (1:1)]

>  <purity by HPLC, Time (month) 4>
98.076

$$$$
>  <molecule>
NC(=O)c1ccc[n+]([C@@H]2O[C@H](CO)[C@@H](O)[C@H]2O)c1.O=C(O)CC(O)(CC(=O)O)C(=O)[O-] [Example 1, citrate of NR (1:1)]

>  <purity by HPLC, Time (month) 4>
98.252

$$$$
